We begin with a simple list: items and their reported GI50.
Test system: DU145 cells
Experiment: Cell growth inhibition bioassay (sulforhodamine B)
Type: cell-based, human
Conditions: Homo sapiens, DU-145; 48 h, SRB; read-out: GI50 in indicated cell line: DU145
Write the value in µM as a bare number.

Solved entries:
{"Smiles Structure": "COc1cc(O)c(C(=O)CCc2ccc3c(c2)OCO3)c(OC)c1", "System": "DU145 cells", "GI50 / µM": 60.2}
{"Smiles Structure": "COc1cc(O)cc(O)c1C(=O)/C=C/c1ccc2c(c1)OCO2", "System": "DU145 cells", "GI50 / µM": 12.4}

// query For the compound COc1ccc(/C=C/C(=O)c2c(O)cc(OC)cc2OC)cc1 , what GI50 is on record?
// result 30.8

// query For the compound C=CCOc1cc(OC)c(C(=O)/C=C/c2ccc(OC)cc2)c(OCC=C)c1 , what GI50 is on record?
// result 21

----------
Tested on: MCF-7 cells
Assay: Cell growth inhibition bioassay (sulforhodamine B)
Format: cell-based, human
Details: Homo sapiens, MCF7; 48 h, SRB; read-out: GI50 in indicated cell line: MCF-7
We begin with a simple list: items and their reported GI50.
Write the value in µg/mL as a bare number.

Solved entries:
{"Compound": "CC(C)(C)c1ccc(/C=N\\Nc2ncnc3sc4c(c23)CCCC4)cc1 [II-08]", "System": "MCF-7 cells", "GI50 (µg/mL)": 2.3}
{"Compound": "Clc1ccc(/C=N\\Nc2ncnc3sc4c(c23)CCCC4)cc1 [II-28]", "System": "MCF-7 cells", "GI50 (µg/mL)": 2.9}
{"Compound": "CC(C)c1ccc(/C=N\\Nc2ncnc3sc4c(c23)CCCC4)cc1 [II-07]", "System": "MCF-7 cells", "GI50 (µg/mL)": 1.8}
{"Compound": "C=CCOc1cc(/C=N\\Nc2ncnc3sc4c(c23)CCCC4)cc(OCC=C)c1Br [II-17]", "System": "MCF-7 cells", "GI50 (µg/mL)": 1.9}
{"Compound": "Brc1ccccc1/C=N\\Nc1ncnc2sc3c(c12)CCCC3 [II-31]", "System": "MCF-7 cells", "GI50 (µg/mL)": 1.7}
{"Compound": "CCC(CC)=NNc1ncnc2sc3c(c12)CCCC3 [II-48]", "System": "MCF-7 cells", "GI50 (µg/mL)": 4.4}
{"Compound": "C(=N/Nc1ncnc2sc3c(c12)CCCC3)/c1ccco1 [II-18]", "System": "MCF-7 cells", "GI50 (µg/mL)": 0.3}
{"Compound": "C(=N/Nc1ncnc2sc3c(c12)CCCC3)/c1ccccn1 [II-21]", "System": "MCF-7 cells", "GI50 (µg/mL)": 0.026}
{"Compound": "CCc1ccc(/C=N\\Nc2ncnc3sc4c(c23)CCCC4)cc1 [II-06]", "System": "MCF-7 cells", "GI50 (µg/mL)": 6.2}
{"Compound": "COc1cccc(/C=N\\Nc2ncnc3sc4c(c23)CCCC4)c1 [II-11]", "System": "MCF-7 cells", "GI50 (µg/mL)": 5}

Proceeding to the next compound to report its GI50.
// query For the compound C(=N/Nc1ncnc2sc3c(c12)CCCC3)/c1ccncc1 [II-20] , what GI50 is on record?
// result 26
